- Test system: L1210 leukemia ip in BDF1 mice, survival T/C
- test_summary: NCI In Vivo Anticancer Drug Screen. Data for tumor model L1210 Leukemia (intraperitoneal) in B6D2F1 (BDF1) mice
- condition_details: endpoint: mean survival time; dose: 200.0 mg/kg/injection; schedule: Q01DX001 (ip); vehicle: Klucel (hydroxypropylcellulose) (HPC); higher = longer survival
Inconclusive results and toxic doses are left out.
endpoint_name: T/C

Input: Reported T/C, compound `Cc1ccc(NCN2C(=O)NC(c3ccccc3)(c3ccccc3)C2=O)cc1` : ____
Output: 103 % of control

Input: Reported T/C, compound Cc1ccc(S(=O)(=O)OCC2C3CCC4C3C(C)(C)CCCC24C)cc1 (stereo unspecified) : ____
Output: 95 % of control

Input: Reported T/C, compound `c1ccc(N2CN(c3ccccc3)CN(c3ccccc3)C2)cc1` : ____
Output: 92 % of control

Input: Reported T/C, compound `c1ccc2cc(C3OCC4(CCC4)CO3)ccc2c1` : ____
Output: 104 % of control

Input: Reported T/C, compound `N#Cc1cccnc1Cl` : ____
Output: 94 % of control

Input: Reported T/C, compound CC(C(O)c1ccccc1)C(O)(C(F)(F)Cl)C(F)(F)Cl (stereo unspecified) : ____
Output: 102 % of control

Input: Reported T/C, compound `O=C1c2ccccc2C(=O)N1C1C=CC=CC=C1` : ____
Output: 93 % of control

Input: Reported T/C, compound `c1ccc(N/N=C(\C(=N\Nc2ccccc2)c2ccccc2)c2ccccc2)cc1` : ____
Output: 87 % of control

Input: Reported T/C, compound `CN(C)C(=S)Oc1ccc(C(C)(C)C)cc1` : ____
Output: 98 % of control

Input: Reported T/C, compound `CCOC(=O)CCc1c(COC(C)=O)[nH]c(C(=O)OCC)c1C` : ____
Output: 90 % of control

Input: Reported T/C, compound CC1(C)N=C(N)N=C(N)N1c1ccc(CC(CCc2ccccc2)C(=O)Nc2ccc(S(=O)(=O)F)cc2)cc1 (stereo unspecified) : ____
Output: 97 % of control

All figures here come from PubChem BioAssay AID248.
